// data source = patent US20080280855A1

Below is a list of entries, each paired with its recorded melting point value.

Reference set, count: 5
[
  {
    "COMPOUND": "Cc1nc2c(O)c(CC[C@@H](O)c3ccccc3)c(C(=O)N(C)C)cc2n1COCC[Si](C)(C)C",
    "RESULT": "142 to 143 °C"
  },
  {
    "COMPOUND": "CCc1ccccc1[C@H](O)CCc1c(C(=O)N(C)C)cc2c(nc(C)n2C)c1O",
    "RESULT": "135 to 137 °C"
  },
  {
    "COMPOUND": "CNC(=O)c1cc2c(nc(C)n2C)c(O)c1CC[C@@H](O)c1ccccc1",
    "RESULT": "247 to 249 °C"
  },
  {
    "COMPOUND": "Cc1nc2c(O)c(CC[C@@H](O)c3ccc(F)cc3)c(C(=O)N(C)C)cc2n1C",
    "RESULT": "276 to 277 °C"
  },
  {
    "COMPOUND": "Cc1nc2c(O)c(CC[C@@H](O)c3ccccc3)c(C(=O)N3CCC3)cc2n1C",
    "RESULT": "265 to 266 °C"
  }
]

## Task Consider the compound shown here: Cc1nc2c3c(c(C(=O)N(C)C)cc2[nH]1)CC[C@@H](c1ccccc1)O3 What is its recorded melting point?
## Result 215 to 216 °C
